Test: Stability of the compound
Type: physicochemical
experimental readout: Stability

Record excerpt, results attached:
CCOC(=O)CCC[C@H]1[C@H]2CCCN3CCC[C@H](CN1C(=O)c1ccc(N(CCCl)CCCl)cc1)[C@@H]23: Unstable
COC(=O)CCC[C@H]1[C@H]2CCCN3CCC[C@H](CN1C(=O)c1ccc(N(CCCl)CCCl)cc1)[C@@H]23: Unstable
CCCOC(=O)CCC[C@H]1[C@H]2CCCN3CCC[C@H](CN1C(=O)c1ccc(N(CCCl)CCCl)cc1)[C@@H]23: Unstable
CCCCOC(=O)CCC[C@H]1[C@H]2CCCN3CCC[C@H](CN1C(=O)c1ccc(N(CCCl)CCCl)cc1)[C@@H]23: Unstable

Turning now to a further record.
Query: Stability; subject: CC(C)OC(=O)CCC[C@H]1[C@H]2CCCN3CCC[C@H](CN1C(=O)c1ccc(N(CCCl)CCCl)cc1)[C@@H]23
Unstable
